experiment: In vivo stability in male ddY mouse thyroid gland assessed as decrease in radioactivity at 37 kBq, iv measured after 10 to 240 mins by autowell-gamma counter analysis; format: ADME, organism-based; settings: time 10-240 min
readout-type: Stability

Example molecules with recorded Stability:
> print(dat)
                            compound.smiles  readout.type    result
1  CN(C)C(=O)c1cc(C(=O)NCC(=O)O)cc(C(=O)N(C)C)c1[211At]     Stability    Stable
2    O=C(O)CNC(=O)c1cc(CO)c([211At])c(CO)c1     Stability  Unstable
3  COCOCc1cc(C(=O)NCC(=O)O)cc(COCOC)c1[211At]     Stability  Unstable
4     O=C(O)CNC(=O)c1cc(CO)c([125I])c(CO)c1     Stability    Stable
5            O=C(O)CNC(=O)c1ccc([211At])cc1     Stability  Unstable
6  CN(C)C(=O)c1cc(C(=O)NCC(=O)O)cc(C(=O)N(C)C)c1[125I]     Stability    Stable
7  COCOCc1cc(C(=O)NCC(=O)O)cc(COCOC)c1[125I]     Stability    Stable
8             O=C(O)CNC(=O)c1ccc([125I])cc1     Stability    Stable

# lookup: Stability of `CN(C)C(=O)c1cc(C(=O)NCC(=O)O)ccc1[211At]`
Unstable

----------
experiment: Stability in mouse plasma assessed as parent compound remaining measured after 1 hrs by TLC analysis; type: ADME, cell-free; details: read-out: Stability
readout-type: remaining at 1 h (%)
Please state the figure in %; there is no need to write the unit.

> print(dat)
                            compound.smiles  numeric.result
1  COCOCc1cc(C(=O)NCC(=O)O)cc(COCOC)c1[211At]            81.5

Consider the compound `COCOCc1cc(C(=O)NCC(=O)O)cc(COCOC)c1[125I]` and give its measured remaining at 1 h.
92.9

What remaining at 1 h value was documented for this compound, `CN(C)C(=O)c1cc(C(=O)NCC(=O)O)cc(C(=O)N(C)C)c1[211At]` ?
92

Bench note: what remaining at 1 h did `O=C(O)CNC(=O)c1cc(CO)c([125I])c(CO)c1` show?
95.8

----------
remaining at 1 h values for the compounds below.
assay: Stability in mouse plasma assessed as parent compound remaining measured after 1 hrs by TLC analysis; type: ADME, cell-free; settings: read-out: Stability
Supply the numeric figure in %, leaving out any unit text.

Worked set:
> print(dat)
                            compound.smiles  measure.unit  numeric.result
1    O=C(O)CNC(=O)c1cc(CO)c([211At])c(CO)c1             %            88.7
2  CN(C)C(=O)c1cc(C(=O)NCC(=O)O)cc(C(=O)N(C)C)c1[125I]             %            92.7
3             O=C(O)CNC(=O)c1ccc([125I])cc1             %            98.4

Item `O=C(O)CNC(=O)c1ccc([211At])cc1` has what recorded remaining at 1 h?
81.4

For the compound shown here, `CN(C)C(=O)c1cc(C(=O)NCC(=O)O)ccc1[211At]` , give the reported remaining at 1 h.
95.8

Which measured remaining at 1 h value corresponds to `CN(C)C(=O)c1cc(C(=O)NCC(=O)O)ccc1[125I]` ?
96.9

Entry source: ChEMBL document CHEMBL6096687
